- measured target: PKBa (Homo sapiens)
- Sequence (P31749 whole entry): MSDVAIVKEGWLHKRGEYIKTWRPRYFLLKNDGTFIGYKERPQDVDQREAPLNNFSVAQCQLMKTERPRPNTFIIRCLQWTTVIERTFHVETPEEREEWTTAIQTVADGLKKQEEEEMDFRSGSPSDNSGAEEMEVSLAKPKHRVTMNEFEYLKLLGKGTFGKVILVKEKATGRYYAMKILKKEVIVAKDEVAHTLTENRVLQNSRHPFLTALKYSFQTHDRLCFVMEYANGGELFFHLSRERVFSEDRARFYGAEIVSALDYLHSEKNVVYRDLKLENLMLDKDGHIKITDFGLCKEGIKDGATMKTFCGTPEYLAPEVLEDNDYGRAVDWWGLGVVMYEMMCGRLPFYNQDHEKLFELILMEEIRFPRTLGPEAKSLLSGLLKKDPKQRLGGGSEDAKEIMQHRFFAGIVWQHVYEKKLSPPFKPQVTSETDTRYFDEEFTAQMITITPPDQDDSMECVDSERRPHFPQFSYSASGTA
- assay protocol: Kinase profiling PKBa
- Assay type: biochemical
- measurement conditions: 100 micromolar inhibitor concentration; 100 is no change
- From the text: Any value less that 25 is considered to be highly significant inhibition.
quantity name: residual kinase activity, PKBa
Would you mind answering with just the numeric figure?

> print(dat)
                         compound  meas.value
1  O=C(Nc1nc2cc(O)ccc2s1)c1cccnc1         100

Exercise: Query: residual kinase activity, PKBa; subject: `CC(=O)Nc1nc2ccc(F)cc2s1`
Key: 94

Exercise: Query: residual kinase activity, PKBa; subject: `CC(=O)Nc1nc2cc(C)ccc2s1`
Key: 104

Exercise: Query: residual kinase activity, PKBa; subject: `CC(=O)Nc1cccc(C(=O)Nc2nc3ccc(O)cc3s2)c1`
Key: 92

Exercise: Query: residual kinase activity, PKBa; subject: `N#Cc1ccc2nc(NC(=O)c3ccccc3)sc2c1`
Key: 67

Exercise: Query: residual kinase activity, PKBa; subject: `COc1ccc2nc(NC(=O)c3ccccc3)sc2c1`
Key: 103

Exercise: Query: residual kinase activity, PKBa; subject: CC(=O)NC(C)C(=O)Nc1nc2ccc(C(F)(F)F)cc2s1 (centres unmarked)
Key: 105

Exercise: Query: residual kinase activity, PKBa; subject: `O=C(Nc1nc2cc(O)ccc2s1)c1ccncc1`
Key: 88

Exercise: Query: residual kinase activity, PKBa; subject: `COc1ccc2sc(NC(=O)c3ccccc3)nc2c1`
Key: 80

Exercise: Query: residual kinase activity, PKBa; subject: `COc1ccc2sc(NC(=O)c3cccc(C(N)=O)c3)nc2c1`
Key: 89

Exercise: Query: residual kinase activity, PKBa; subject: `CC(=O)Nc1cccc(C(=O)Nc2nc3cc(O)ccc3s2)c1`
Key: 82

Exercise: Query: residual kinase activity, PKBa; subject: `COC(=O)c1cccc(C(=O)Nc2nc3ccc(F)cc3s2)c1`
Key: 109

Exercise: Query: residual kinase activity, PKBa; subject: `O=C(Nc1nc2ccc(O)cc2s1)c1ccncc1`
Key: 90

Exercise: Query: residual kinase activity, PKBa; subject: `CC(=O)Nc1nc2ccccc2s1`
Key: 104

Exercise: Query: residual kinase activity, PKBa; subject: `O=C(Nc1nc2ccc(O)cc2s1)c1cccnc1`
Key: 83

Exercise: Query: residual kinase activity, PKBa; subject: `O=C(Nc1nc2ccc(O)cc2s1)c1ccccc1`
Key: 79

Exercise: Query: residual kinase activity, PKBa; subject: `O=C(Nc1nc2ccc(F)cc2s1)c1ccccc1`
Key: 99

###

- measured target: BTK (Homo sapiens)
- Sequence (Q06187 whole entry, species assumed): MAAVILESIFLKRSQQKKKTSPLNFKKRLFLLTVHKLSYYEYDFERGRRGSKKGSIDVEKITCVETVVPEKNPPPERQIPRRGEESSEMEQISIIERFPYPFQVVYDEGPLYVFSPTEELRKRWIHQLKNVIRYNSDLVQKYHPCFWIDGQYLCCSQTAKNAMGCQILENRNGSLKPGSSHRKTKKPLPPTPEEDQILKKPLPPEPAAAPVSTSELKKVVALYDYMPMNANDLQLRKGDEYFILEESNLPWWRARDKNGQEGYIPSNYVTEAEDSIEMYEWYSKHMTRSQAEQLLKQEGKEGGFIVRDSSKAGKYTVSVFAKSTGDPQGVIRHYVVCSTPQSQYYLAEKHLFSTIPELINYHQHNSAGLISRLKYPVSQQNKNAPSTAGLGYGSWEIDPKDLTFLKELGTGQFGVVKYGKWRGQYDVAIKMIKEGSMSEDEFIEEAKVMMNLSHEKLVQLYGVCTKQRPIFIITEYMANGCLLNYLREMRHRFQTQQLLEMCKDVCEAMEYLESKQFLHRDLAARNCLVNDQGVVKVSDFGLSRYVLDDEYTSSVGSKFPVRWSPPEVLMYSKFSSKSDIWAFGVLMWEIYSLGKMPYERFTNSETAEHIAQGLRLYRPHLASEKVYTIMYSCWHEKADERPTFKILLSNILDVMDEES
- assay protocol: Kinase profiling BTK
- Assay type: biochemical
- measurement conditions: 100 micromolar inhibitor concentration; 100 is no change
- Text: Any value less that 25 is considered to be highly significant inhibition.
quantity name: residual kinase activity, BTK
Would you mind answering with just the numeric figure?

> print(dat)
                               smiles.repr     measured.target                  quantity.name  meas.value
1  COc1ccc2sc(NC(=O)c3cccc(C(N)=O)c3)nc2c1  BTK (Homo sapiens)  residual kinase activity, BTK          74
2          COc1ccc2sc(NC(=O)c3ccccc3)nc2c1  BTK (Homo sapiens)  residual kinase activity, BTK          75
3           O=C(Nc1nc2cc(O)ccc2s1)c1cccnc1  BTK (Homo sapiens)  residual kinase activity, BTK         110
4                     CC(=O)Nc1nc2ccccc2s1  BTK (Homo sapiens)  residual kinase activity, BTK         100
5           O=C(Nc1nc2cc(O)ccc2s1)c1ccccc1  BTK (Homo sapiens)  residual kinase activity, BTK          81
6           O=C(Nc1nc2ccc(O)cc2s1)c1cccnc1  BTK (Homo sapiens)  residual kinase activity, BTK          54
7           O=C(Nc1nc2cc(O)ccc2s1)c1ccncc1  BTK (Homo sapiens)  residual kinase activity, BTK         107
8           O=C(Nc1nc2ccc(O)cc2s1)c1ccccn1  BTK (Homo sapiens)  residual kinase activity, BTK          71

Exercise: Query: residual kinase activity, BTK; subject: `CC(=O)Nc1nc2ccc(F)cc2s1`
Key: 107
